# Rf per record follows
- procedure-text: Retardation factor in 1-butanol-ethyl acetate-acetic acid-water at 1:1:1:1 ratio by TLC
- Type: physicochemical
- conditions: buffer

chemical-structure: CCCCCCCCCCCCNCCCC[C@@H](NC(=O)[C@H](Cc1ccc(O)cc1)NC(=O)[C@H](CO)NC(=O)[C@H](Cc1c[nH]c2ccccc12)NC(=O)[C@H](Cc1cnc[nH]1)NC(=O)[C@@H]1CCC(=O)N1)C(=O)N[C@@H](CC(C)C)C(=O)N[C@@H](CCCNC(=N)N)C(=O)N1CCC[C@H]1C(=O)NCC
Rf: 0.72

chemical-structure: CC(C)C[C@H](NC(=O)[C@@H](CCCN)NC(=O)[C@H](Cc1ccc(O)cc1)NC(=O)[C@H](CO)NC(=O)[C@H](Cc1c[nH]c2ccccc12)NC(=O)[C@@H]1CCC(=O)N1)C(=O)N[C@@H](CCCNC(=N)N)C(=O)N1CCC[C@H]1C(=O)NCC(N)=O
Rf: 0.74

---

- procedure-text: Retardation factor in ethyl acetate-pyridine-acetic acid-water at 5:5:1:3 ratio by TLC
- Assay type: physicochemical
- conditions: buffer

chemical-structure: CCCCCCCCCCCCNCCCC[C@@H](NC(=O)[C@H](Cc1ccc(O)cc1)NC(=O)[C@H](CO)NC(=O)[C@H](Cc1c[nH]c2ccccc12)NC(=O)[C@H](Cc1cnc[nH]1)NC(=O)[C@@H]1CCC(=O)N1)C(=O)N[C@@H](CC(C)C)C(=O)N[C@@H](CCCNC(=N)N)C(=O)N1CCC[C@H]1C(=O)NCC
Rf: 0.4
--
chemical-structure: CCNC(=O)[C@@H]1CCCN1C(=O)[C@H](CCCNC(=N)N)NC(=O)[C@H](CC(C)C)NC(=O)[C@@H](CCCN)NC(=O)[C@H](Cc1ccc(O)cc1)NC(=O)[C@H](CO)NC(=O)[C@H](Cc1c[nH]c2ccccc12)NC(=O)[C@@H]1CCC(=O)N1
Rf: 0.71
--
chemical-structure: CCCCCCCCCCCCNCCCC[C@@H](NC(=O)[C@H](Cc1ccc(O)cc1)NC(=O)[C@H](CO)NC(=O)[C@H](Cc1c[nH]c2ccccc12)NC(=O)[C@@H]1CCC(=O)N1)C(=O)N[C@@H](CC(C)C)C(=O)N[C@@H](CCCNC(=N)N)C(=O)N1CCC[C@H]1C(=O)NCC
Rf: 0.53
--
chemical-structure: CC(C)C[C@H](NC(=O)[C@@H](CCCCN)NC(=O)[C@H](Cc1ccc(O)cc1)NC(=O)[C@H](CO)NC(=O)[C@H](Cc1c[nH]c2ccccc12)NC(=O)[C@H](Cc1cnc[nH]1)NC(=O)[C@@H]1CCC(=O)N1)C(=O)N[C@@H](CCCNC(=N)N)C(=O)N1CCC[C@H]1C(=O)NCC(N)=O
Rf: 0.58

---

# Rf per record follows
- procedure-text: Retardation factor in 2-butanol-0.1 N ammonium hydroxide at 1:1 ratio by TLC
- Format: physicochemical

chemical-structure: CCCCCCCCCCCCNCCCC[C@@H](NC(=O)[C@H](Cc1ccc(O)cc1)NC(=O)[C@H](CO)NC(=O)[C@H](Cc1c[nH]c2ccccc12)NC(=O)[C@@H]1CCC(=O)N1)C(=O)N[C@@H](CC(C)C)C(=O)N[C@@H](CCCNC(=N)N)C(=O)N1CCC[C@H]1C(=O)NCC(N)=O
Rf: 0.43
//
chemical-structure: CC(=O)NCCCC[C@@H](NC(=O)[C@H](Cc1ccc(O)cc1)NC(=O)[C@H](CO)NC(=O)[C@H](Cc1c[nH]c2ccccc12)NC(=O)[C@H](Cc1cnc[nH]1)NC(=O)[C@@H]1CCC(=O)N1)C(=O)N[C@@H](CC(C)C)C(=O)N[C@@H](CCCNC(=N)N)C(=O)N1CCC[C@H]1C(=O)NCC(N)=O
Rf: 0.33

---

- procedure-text: Retardation factor in 1-butanol-acetic acid-water at 4:1:5 ratio by TLC
- Format: physicochemical
- conditions: buffer
*1 amine or outer side, *2 acyl side, *3 side chain or, on linkers, in order; H or OH if unused. Where a SMILES comes first, the peptide text is derived from it. [ ]: non-standard residue; d: D form. X1 = CCCCCCCCCCCCNCCC[C@@H](N[*:1])C(=O)[*:2]; pGlu = O=C1CC[C@@H](C(=O)O)N1
Field 'label' (enum: true (1) / false (0)). Set to true (1) when Rf is strictly under 0.4; else false (0).

compound: CC(C)C[C@H](NC(=O)[C@@H](CCCCN)NC(=O)[C@H](Cc1ccc(O)cc1)NC(=O)[C@H](CO)NC(=O)[C@H](Cc1c[nH]c2ccccc12)NC(=O)[C@@H]1CCC(=O)N1)C(=O)N[C@@H](CCCNC(=N)N)C(=O)N1CCC[C@H]1C(=O)NCC(N)=O ([pGlu]WSY[dK]LRPG-NH2)
qualitative-label: true (1)
//
compound: CCCCCCCCCCCCNCCC[C@@H](NC(=O)[C@H](Cc1ccc(O)cc1)NC(=O)[C@H](CO)NC(=O)[C@H](Cc1c[nH]c2ccccc12)NC(=O)[C@@H]1CCC(=O)N1)C(=O)N[C@@H](CC(C)C)C(=O)N[C@@H](CCCNC(=N)N)C(=O)N1CCC[C@H]1C(=O)NCC(N)=O ([pGlu]WSY[X1]LRPG-NH2)
qualitative-label: false (0)
//
compound: CC(C)C[C@H](NC(=O)[C@@H](CCCN)NC(=O)[C@H](Cc1ccc(O)cc1)NC(=O)[C@H](CO)NC(=O)[C@H](Cc1c[nH]c2ccccc12)NC(=O)[C@@H]1CCC(=O)N1)C(=O)N[C@@H](CCCNC(=N)N)C(=O)N1CCC[C@H]1C(=O)NCC(N)=O
qualitative-label: false (0)
//
compound: CC(C)C[C@H](NC(=O)[C@@H](CCCCN)NC(=O)[C@H](Cc1ccc(O)cc1)NC(=O)[C@H](CO)NC(=O)[C@H](Cc1c[nH]c2ccccc12)NC(=O)[C@H](Cc1cnc[nH]1)NC(=O)[C@@H]1CCC(=O)N1)C(=O)N[C@@H](CCCNC(=N)N)C(=O)N1CCC[C@H]1C(=O)NCC(N)=O
qualitative-label: true (1)
//
compound: CCCCCCCCCCCCNCCC[C@@H](NC(=O)[C@H](Cc1ccc(O)cc1)NC(=O)[C@H](CO)NC(=O)[C@H](Cc1c[nH]c2ccccc12)NC(=O)[C@H](Cc1cnc[nH]1)NC(=O)[C@@H]1CCC(=O)N1)C(=O)N[C@@H](CC(C)C)C(=O)N[C@@H](CCCNC(=N)N)C(=O)N1CCC[C@H]1C(=O)NCC
qualitative-label: false (0)
//
compound: CCCCCCCCCCCCNCCCC[C@@H](NC(=O)[C@H](Cc1ccc(O)cc1)NC(=O)[C@H](CO)NC(=O)[C@H](Cc1c[nH]c2ccccc12)NC(=O)[C@H](Cc1cnc[nH]1)NC(=O)[C@@H]1CCC(=O)N1)C(=O)N[C@@H](CC(C)C)C(=O)N[C@@H](CCCNC(=N)N)C(=O)N1CCC[C@H]1C(=O)NCC
qualitative-label: false (0)

---

- procedure-text: Retardation factor in 2-butanol-water at 1:1 ratio by TLC
- Type: physicochemical
- conditions: buffer
*1 amine or outer side, *2 acyl side, *3 side chain or, on linkers, in order; H or OH if unused. Where a SMILES comes first, the peptide text is derived from it. [ ]: non-standard residue; d: D form. X1 = CCCCCCCCCCCCNCCC[C@@H](N[*:1])C(=O)[*:2]; pGlu = O=C1CC[C@@H](C(=O)O)N1
recorded-endpoint: Rf

molecule: CCNC(=O)[C@@H]1CCCN1C(=O)[C@H](CCCNC(=N)N)NC(=O)[C@H](CC(C)C)NC(=O)[C@@H](CCCN)NC(=O)[C@H](Cc1ccc(O)cc1)NC(=O)[C@H](CO)NC(=O)[C@H](Cc1c[nH]c2ccccc12)NC(=O)[C@@H]1CCC(=O)N1
recorded-endpoint: Rf
result: 0.28
//
molecule: CCCCCCCCCCCCNCCC[C@@H](NC(=O)[C@H](Cc1ccc(O)cc1)NC(=O)[C@H](CO)NC(=O)[C@H](Cc1c[nH]c2ccccc12)NC(=O)[C@@H]1CCC(=O)N1)C(=O)N[C@@H](CC(C)C)C(=O)N[C@@H](CCCNC(=N)N)C(=O)N1CCC[C@H]1C(=O)NCC(N)=O ([pGlu]WSY[X1]LRPG-NH2)
recorded-endpoint: Rf
result: 0.45
//
molecule: CCCCCCCCCCCCNCCCC[C@@H](NC(=O)[C@H](Cc1ccc(O)cc1)NC(=O)[C@H](CO)NC(=O)[C@H](Cc1c[nH]c2ccccc12)NC(=O)[C@H](Cc1cnc[nH]1)NC(=O)[C@@H]1CCC(=O)N1)C(=O)N[C@@H](CC(C)C)C(=O)N[C@@H](CCCNC(=N)N)C(=O)N1CCC[C@H]1C(=O)NCC(N)=O
recorded-endpoint: Rf
result: 0.37
//
molecule: CCCCCCCCCCCCNCCC[C@@H](NC(=O)[C@H](Cc1ccc(O)cc1)NC(=O)[C@H](CO)NC(=O)[C@H](Cc1c[nH]c2ccccc12)NC(=O)[C@H](Cc1cnc[nH]1)NC(=O)[C@@H]1CCC(=O)N1)C(=O)N[C@@H](CC(C)C)C(=O)N[C@@H](CCCNC(=N)N)C(=O)N1CCC[C@H]1C(=O)NCC(N)=O
recorded-endpoint: Rf
result: 0.38
//
molecule: CCCCCCCCCCCCNCCCC[C@@H](NC(=O)[C@H](Cc1ccc(O)cc1)NC(=O)[C@H](CO)NC(=O)[C@H](Cc1c[nH]c2ccccc12)NC(=O)[C@@H]1CCC(=O)N1)C(=O)N[C@@H](CC(C)C)C(=O)N[C@@H](CCCNC(=N)N)C(=O)N1CCC[C@H]1C(=O)NCC
recorded-endpoint: Rf
result: 0.46
//
molecule: CCNC(=O)[C@@H]1CCCN1C(=O)[C@H](CCCNC(=N)N)NC(=O)[C@H](CC(C)C)NC(=O)[C@@H](CCCCN)NC(=O)[C@H](Cc1ccc(O)cc1)NC(=O)[C@H](CO)NC(=O)[C@H](Cc1c[nH]c2ccccc12)NC(=O)[C@@H]1CCC(=O)N1
recorded-endpoint: Rf
result: 0.31
